Biological target: Adenosine receptor A1 (Homo sapiens)
Sequence (whole entry): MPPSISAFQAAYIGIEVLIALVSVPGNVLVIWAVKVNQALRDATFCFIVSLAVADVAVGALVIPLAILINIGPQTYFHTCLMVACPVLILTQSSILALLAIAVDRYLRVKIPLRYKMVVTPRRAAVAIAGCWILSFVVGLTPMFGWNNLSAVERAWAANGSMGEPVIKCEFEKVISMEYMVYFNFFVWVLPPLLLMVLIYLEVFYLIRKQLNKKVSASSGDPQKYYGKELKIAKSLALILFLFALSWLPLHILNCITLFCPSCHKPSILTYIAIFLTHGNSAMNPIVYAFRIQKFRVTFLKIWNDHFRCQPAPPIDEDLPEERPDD
Assay: Binding affinity to recombinant human A1 adenosine receptor allosteric site expressed in CHO cells assessed as potentiation of CCPA-induced [3H]DPCPX displacement at 10 uM after 90 mins relative to control
Assay type: cell-based
Label criterion not met if fold change (FC) falls below 4; label criterion met in every other case.

{"mol": "Nc1scc(CN2CCN(c3ccc(Cl)c(Cl)c3)CC2)c1C(=O)c1ccc(Cl)cc1", "class assignment": "criterion not met"}
{"mol": "Nc1scc(CN2CCN(c3ccc(OC(F)(F)F)cc3)CC2)c1C(=O)c1ccc(Cl)cc1", "class assignment": "criterion met"}

Task: In plain terms: is recorded fold change (FC) at least 4 for Cc1sc(N)c(C(=O)c2cccc(C(F)(F)F)c2)c1C ?
Output: criterion not met

Task: In plain terms: is recorded fold change (FC) at least 4 for Nc1scc(CN2CCN(c3cccnc3)CC2)c1C(=O)c1ccc(Cl)cc1 ?
Output: criterion not met

Task: In plain terms: is recorded fold change (FC) at least 4 for Nc1scc(CN2CCN(c3ccc([N+](=O)[O-])cc3)CC2)c1C(=O)c1ccc(Cl)cc1 ?
Output: criterion met

Task: In plain terms: is recorded fold change (FC) at least 4 for Nc1scc(CN2CCC(c3ccc(Cl)cc3)CC2)c1C(=O)c1ccc(Cl)cc1 ?
Output: criterion not met

Task: In plain terms: is recorded fold change (FC) at least 4 for Nc1scc(CN2CCN(c3cccc(F)c3)CC2)c1C(=O)c1cccc(C(F)(F)F)c1 ?
Output: criterion met

Task: In plain terms: is recorded fold change (FC) at least 4 for Nc1scc(CN2CCN(c3cc(F)ccc3F)CC2)c1C(=O)c1ccc(Cl)cc1 ?
Output: criterion not met

Task: In plain terms: is recorded fold change (FC) at least 4 for Nc1scc(CN2CCN(c3cccc(Cl)c3Cl)CC2)c1C(=O)c1ccc(Cl)cc1 ?
Output: criterion not met

Task: In plain terms: is recorded fold change (FC) at least 4 for Nc1scc(CN2CCN(Cc3ccc(Cl)cc3)CC2)c1C(=O)c1ccc(Cl)cc1 ?
Output: criterion not met

Task: In plain terms: is recorded fold change (FC) at least 4 for Nc1scc(CN2CCN(c3c(F)cccc3F)CC2)c1C(=O)c1ccc(Cl)cc1 ?
Output: criterion met

Task: In plain terms: is recorded fold change (FC) at least 4 for Nc1scc(CN2CCN(C(=O)c3ccc(Cl)cc3)CC2)c1C(=O)c1ccc(Cl)cc1 ?
Output: criterion not met

Task: In plain terms: is recorded fold change (FC) at least 4 for Nc1scc(CN2CCN(c3cc(Cl)cc(Cl)c3)CC2)c1C(=O)c1ccc(Cl)cc1 ?
Output: criterion met

Task: In plain terms: is recorded fold change (FC) at least 4 for Nc1scc(CN2CCN(c3cccc(C(F)(F)F)c3)CC2)c1C(=O)c1ccc(Cl)cc1 ?
Output: criterion met

Task: In plain terms: is recorded fold change (FC) at least 4 for CC(C)N1CCN(Cc2csc(N)c2C(=O)c2ccc(Cl)cc2)CC1 ?
Output: criterion not met

Task: In plain terms: is recorded fold change (FC) at least 4 for Nc1scc(CN2CCN(c3ccc(Cl)cc3F)CC2)c1C(=O)c1ccc(Cl)cc1 ?
Output: criterion met

Task: In plain terms: is recorded fold change (FC) at least 4 for Nc1scc(CN2CCN(C(=O)Cc3ccc(Cl)cc3)CC2)c1C(=O)c1ccc(Cl)cc1 ?
Output: criterion not met

====

Reported inhibition values follow for various molecules
biological target: UniProtKB P0DMS8; test: Displacement of [3H]MRE3008F20 from recombinant human A3 adenosine receptor expressed in CHO cells at 10 uM after 120 mins by scintillation counting; assay type: cell-based
Sequence (P0DMS8 whole entry): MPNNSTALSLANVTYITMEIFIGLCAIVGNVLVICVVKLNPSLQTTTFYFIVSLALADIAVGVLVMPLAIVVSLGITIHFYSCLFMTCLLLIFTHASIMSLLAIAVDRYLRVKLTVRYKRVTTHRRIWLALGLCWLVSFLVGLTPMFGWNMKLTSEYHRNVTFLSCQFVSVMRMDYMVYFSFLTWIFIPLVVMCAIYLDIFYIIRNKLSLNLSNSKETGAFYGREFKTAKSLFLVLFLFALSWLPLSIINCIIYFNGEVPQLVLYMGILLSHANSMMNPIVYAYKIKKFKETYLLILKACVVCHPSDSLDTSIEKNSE
The reply should be a number in %, with the unit left off.

{"mol": "Nc1scc(CN2CCN(c3ccc(F)c(F)c3)CC2)c1C(=O)c1ccc(Cl)cc1", "inhibition / %": 1}
{"mol": "Nc1scc(CN2CCN(c3ccccc3Cl)CC2)c1C(=O)c1ccc(Cl)cc1", "inhibition / %": 0}
{"mol": "Nc1scc(CN2CCN(c3cccc(Cl)c3)CC2)c1C(=O)c1ccc(Cl)cc1", "inhibition / %": 1}
{"mol": "Nc1scc(CN2CCN(CCCc3ccc(Cl)cc3)CC2)c1C(=O)c1ccc(Cl)cc1", "inhibition / %": 0}
{"mol": "Nc1scc(CN2CCN(Cc3ccc(Cl)cc3)CC2)c1C(=O)c1ccc(Cl)cc1", "inhibition / %": 0}
{"mol": "Nc1scc(CN2CCN(c3ccc(Cl)cc3F)CC2)c1C(=O)c1ccc(Cl)cc1", "inhibition / %": 1}
{"mol": "Nc1scc(CN2CCN(C(=O)c3ccc(Cl)cc3)CC2)c1C(=O)c1ccc(Cl)cc1", "inhibition / %": 0}
{"mol": "Nc1scc(CN2CCN(c3cccnc3)CC2)c1C(=O)c1ccc(Cl)cc1", "inhibition / %": 0}
{"mol": "Nc1scc(CN2CCN(c3ccc(Cl)c(C(F)(F)F)c3)CC2)c1C(=O)c1ccc(Cl)cc1", "inhibition / %": 3}
{"mol": "Nc1scc(CN2CCN(c3c(F)cc(F)cc3F)CC2)c1C(=O)c1ccc(Cl)cc1", "inhibition / %": 0}

// below: inhibition requested for another molecule
Task: // query inhibition value for entry Nc1scc(CN2CCN(c3c(Cl)cccc3Cl)CC2)c1C(=O)c1ccc(Cl)cc1
Output: 1

====

biological target: Adenosine receptor A1 (Homo sapiens) (UniProt P30542); test: Binding affinity to recombinant human A1 adenosine receptor allosteric site expressed in CHO cells assessed as [3H]DPCPX Bmax shift at 10 uM after 90 mins relative to control; assay type: cell-based
measurement name: fold change (FC)

{"mol": "Nc1scc(CN2CCN(C(=O)Cc3ccc(Cl)cc3)CC2)c1C(=O)c1ccc(Cl)cc1", "measurement name": "fold change (FC)", "test value": 0.9}
{"mol": "Nc1scc(CN2CCN(c3ccccc3C(F)(F)F)CC2)c1C(=O)c1ccc(Cl)cc1", "measurement name": "fold change (FC)", "test value": 1}
{"mol": "Nc1scc(CN2CCN(c3cccc(F)c3)CC2)c1C(=O)c1cccc(C(F)(F)F)c1", "measurement name": "fold change (FC)", "test value": 1.1}

Task: Lab request: please report fold change (FC) under test system Adenosine receptor A1 (Homo sapiens) (UniProt P30542) for Nc1scc(CN2CCN(CC(=O)c3ccc(Cl)cc3)CC2)c1C(=O)c1ccc(Cl)cc1
Output: 0.9

Task: Lab request: please report fold change (FC) under test system Adenosine receptor A1 (Homo sapiens) (UniProt P30542) for Nc1scc(CN2CCN(c3ccccc3F)CC2)c1C(=O)c1ccc(Cl)cc1
Output: 1

Task: Lab request: please report fold change (FC) under test system Adenosine receptor A1 (Homo sapiens) (UniProt P30542) for Nc1scc(CN2CCN(c3ccc(F)c(Cl)c3)CC2)c1C(=O)c1ccc(Cl)cc1
Output: 1.1

====

Reported Activity values follow for various compounds
target: Adenosine receptor A1 (Homo sapiens) (UniProt P30542); assay: Allosteric enhancer activity at recombinant human A1 adenosine receptor expressed in CHO cells assessed as change in forskolin-induced cAMP production at 0.01 uM after 6 mins by radioimmunoassay; assay type: functional, cell-based
The reply should be a number in %, with the unit left off.

{"mol": "CC(C)N1CCN(Cc2csc(N)c2C(=O)c2ccc(Cl)cc2)CC1", "Activity, %": -1}
{"mol": "COc1ccc(N2CCN(Cc3csc(N)c3C(=O)c3ccc(Cl)cc3)CC2)cc1", "Activity, %": -1.2}
{"mol": "Nc1scc(CN2CCN(c3cccc(Cl)c3)CC2)c1C(=O)c1ccc(Cl)cc1", "Activity, %": -3.1}
{"mol": "Nc1scc(CN2CCN(c3cccc(F)c3)CC2)c1C(=O)c1cccc(C(F)(F)F)c1", "Activity, %": -11}
{"mol": "Nc1scc(CN2CCN(c3c(F)cccc3F)CC2)c1C(=O)c1cccc(C(F)(F)F)c1", "Activity, %": 2.1}

Task: // query Activity value for entry Nc1scc(CN2CCN(c3ccc(F)cc3F)CC2)c1C(=O)c1ccc(Cl)cc1
Output: 0

Task: // query Activity value for entry Nc1scc(CN2CCN(c3ccc(F)c(Cl)c3)CC2)c1C(=O)c1ccc(Cl)cc1
Output: 4.2

Task: // query Activity value for entry Nc1scc(CN2CCN(CCCc3ccc(Cl)cc3)CC2)c1C(=O)c1ccc(Cl)cc1
Output: 0

Task: // query Activity value for entry Cc1sc(N)c(C(=O)c2cccc(C(F)(F)F)c2)c1C
Output: -8

Task: // query Activity value for entry Nc1scc(CN2CCN(c3cccc(F)c3)CC2)c1C(=O)c1ccc(Cl)cc1
Output: -18

Task: // query Activity value for entry Nc1scc(CN2CCN(Cc3ccc(Cl)cc3)CC2)c1C(=O)c1ccc(Cl)cc1
Output: -2.2

Task: // query Activity value for entry Nc1scc(CN2CCN(c3cc(Cl)cc(Cl)c3)CC2)c1C(=O)c1ccc(Cl)cc1
Output: -1

Task: // query Activity value for entry Nc1scc(CN2CCN(c3ccccc3Cl)CC2)c1C(=O)c1ccc(Cl)cc1
Output: -2.1

Task: // query Activity value for entry Nc1scc(CN2CCN(c3ccccc3C(F)(F)F)CC2)c1C(=O)c1ccc(Cl)cc1
Output: 0

Task: // query Activity value for entry Nc1scc(CN2CCN(c3cccc4ccccc34)CC2)c1C(=O)c1ccc(Cl)cc1
Output: 8.7
